run.description: ABTS scavenging assay
Type: biochemical
experimental.parameters: 1000 μM, n = 3
Each item that follows carries a reported % ABTS scavenging mean ± SEM.
value.type: % ABTS scavenging mean ± SEM

compound: O=C1c2ccccc2C(=O)N1c1ccc(Br)cc1
value.type: % ABTS scavenging mean ± SEM
observed.result: 62.57 ± 0.50%
//
compound: Cc1ccc(N2C(=O)c3ccccc3C2=O)c(C)c1
value.type: % ABTS scavenging mean ± SEM
observed.result: 73.57 ± 0.41%
//
compound: O=C1c2ccccc2C(=O)N1c1ccc(C(F)(F)F)cc1
value.type: % ABTS scavenging mean ± SEM
observed.result: 70.55 ± 0.32%
//
compound: O=C1O[C@H]([C@@H](O)CO)C(O)=C1O [ascorbic acid, reference compound]
value.type: % ABTS scavenging mean ± SEM
observed.result: 82.14 ± 0.19%

###

test.target: UniProt P81908
run.description: BuChE inhibition, Ellman's colorimetric method
Assay type: biochemical
experimental.parameters: read-out: % BuChE inhibition mean ± SEM

compound: Cc1ccc(N2C(=O)c3ccccc3C2=O)c(C)c1
inhibition at 31.25 µM, %: 59.5
--
compound: O=C1c2ccccc2C(=O)N1c1ccc(Br)cc1
inhibition at 31.25 µM, %: 45.5
--
compound: COc1cc2c(cc1OC)C(=O)C(CC1CCN(Cc3ccccc3)CC1)C2 (stereo not shown) [donepezil, reference compound]
inhibition at 31.25 µM, %: 69.3
--
compound: O=C1c2ccccc2C(=O)N1c1ccc(C(F)(F)F)cc1
inhibition at 31.25 µM, %: 41.4

###

run.description: ABTS scavenging assay
Format: biochemical
experimental.parameters: 500 μM, n = 3

molecule: Cc1ccc(N2C(=O)c3ccccc3C2=O)c(C)c1
unit.spec: %
% ABTS scavenging mean ± SEM: 68.76
//
molecule: O=C1c2ccccc2C(=O)N1c1ccc(C(F)(F)F)cc1
unit.spec: %
% ABTS scavenging mean ± SEM: 66.65
//
molecule: O=C1c2ccccc2C(=O)N1c1ccc(Br)cc1
unit.spec: %
% ABTS scavenging mean ± SEM: 57.76
//
molecule: O=C1O[C@H]([C@@H](O)CO)C(O)=C1O [ascorbic acid, reference compound]
unit.spec: %
% ABTS scavenging mean ± SEM: 73.22

###

test.target: equine butyrylcholinesterase (Equus caballus, UniProt P81908)
Sequence (P81908 whole entry): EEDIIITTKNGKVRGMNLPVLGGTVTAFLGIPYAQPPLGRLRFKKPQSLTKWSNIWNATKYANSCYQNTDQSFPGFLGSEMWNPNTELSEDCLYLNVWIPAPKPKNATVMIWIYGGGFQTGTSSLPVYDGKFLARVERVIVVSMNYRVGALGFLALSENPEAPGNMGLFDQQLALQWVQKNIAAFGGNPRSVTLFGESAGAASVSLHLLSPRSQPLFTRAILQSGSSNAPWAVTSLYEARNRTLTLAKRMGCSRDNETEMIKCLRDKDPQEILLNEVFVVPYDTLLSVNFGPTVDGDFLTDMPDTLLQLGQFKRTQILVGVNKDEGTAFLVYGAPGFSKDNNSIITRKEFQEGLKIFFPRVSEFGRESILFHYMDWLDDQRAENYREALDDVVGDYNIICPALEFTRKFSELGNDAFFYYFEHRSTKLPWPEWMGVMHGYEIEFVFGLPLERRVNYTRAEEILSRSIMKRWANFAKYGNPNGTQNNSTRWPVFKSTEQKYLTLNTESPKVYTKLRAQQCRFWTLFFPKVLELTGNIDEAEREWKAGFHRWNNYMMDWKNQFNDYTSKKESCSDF
run.description: BuChE inhibition, Ellman's colorimetric method
Type: biochemical
experimental.parameters: read-out: % BuChE inhibition mean ± SEM

molecule: O=C1c2ccccc2C(=O)N1c1ccc(Br)cc1 [compound 2, 2-(4-bromophenyl)isoindoline-1,3-dione]
unit.spec: %
inhibition at 500 µM: 71.2
//
molecule: Cc1ccc(N2C(=O)c3ccccc3C2=O)c(C)c1 [compound 3]
unit.spec: %
inhibition at 500 µM: 82.4
//
molecule: O=C1c2ccccc2C(=O)N1c1ccc(C(F)(F)F)cc1 [compound 1]
unit.spec: %
inhibition at 500 µM: 67.4
//
molecule: COc1cc2c(cc1OC)C(=O)C(CC1CCN(Cc3ccccc3)CC1)C2 (stereo not shown) [donepezil, reference compound]
unit.spec: %
inhibition at 500 µM: 86.4

###

test.target: UniProtKB O42275
Sequence (O42275 24-633): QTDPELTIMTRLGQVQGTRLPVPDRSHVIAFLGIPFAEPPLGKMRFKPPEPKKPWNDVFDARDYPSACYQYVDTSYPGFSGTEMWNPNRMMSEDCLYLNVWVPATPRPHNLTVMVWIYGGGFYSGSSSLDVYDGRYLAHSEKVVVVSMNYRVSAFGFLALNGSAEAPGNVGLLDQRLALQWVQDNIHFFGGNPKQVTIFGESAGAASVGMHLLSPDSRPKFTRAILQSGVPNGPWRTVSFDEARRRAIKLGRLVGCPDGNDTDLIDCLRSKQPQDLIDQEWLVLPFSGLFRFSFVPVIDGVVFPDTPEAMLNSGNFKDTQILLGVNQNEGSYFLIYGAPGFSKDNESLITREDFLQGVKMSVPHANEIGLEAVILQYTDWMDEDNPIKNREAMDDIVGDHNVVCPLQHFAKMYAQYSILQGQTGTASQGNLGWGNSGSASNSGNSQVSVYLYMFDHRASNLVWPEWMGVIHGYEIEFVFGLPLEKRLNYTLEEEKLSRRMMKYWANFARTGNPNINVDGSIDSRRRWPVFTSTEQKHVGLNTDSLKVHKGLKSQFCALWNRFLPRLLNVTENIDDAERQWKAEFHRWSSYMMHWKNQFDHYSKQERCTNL
pIC50: −log10 of the molar value.

smiles.text: O=C1c2ccccc2C(=O)N1c1ccc(Br)cc1
pIC50: 3.85
--
smiles.text: Cc1ccc(N2C(=O)c3ccccc3C2=O)c(C)c1
pIC50: 4.74
--
smiles.text: O=C1c2ccccc2C(=O)N1c1ccc(C(F)(F)F)cc1
pIC50: 5.00

###

test.target: equine butyrylcholinesterase (Equus caballus, UniProt P81908)
run.description: BuChE inhibition, Ellman's colorimetric method
Format: biochemical
experimental.parameters: read-out: % BuChE inhibition mean ± SEM

compound: Cc1ccc(N2C(=O)c3ccccc3C2=O)c(C)c1 [compound 3]
test.target: equine butyrylcholinesterase (Equus caballus, UniProt P81908)
inhibition at 62.5 µM: 63.4%
--
compound: COc1cc2c(cc1OC)C(=O)C(CC1CCN(Cc3ccccc3)CC1)C2 (stereo not shown) [donepezil, reference compound]
test.target: equine butyrylcholinesterase (Equus caballus, UniProt P81908)
inhibition at 62.5 µM: 74.4%
--
compound: O=C1c2ccccc2C(=O)N1c1ccc(Br)cc1 [compound 2, 2-(4-bromophenyl)isoindoline-1,3-dione]
test.target: equine butyrylcholinesterase (Equus caballus, UniProt P81908)
inhibition at 62.5 µM: 51.3%
--
compound: O=C1c2ccccc2C(=O)N1c1ccc(C(F)(F)F)cc1 [compound 1]
test.target: equine butyrylcholinesterase (Equus caballus, UniProt P81908)
inhibition at 62.5 µM: 47.3%

###

test.target: equine butyrylcholinesterase (Equus caballus, UniProt P81908)
run.description: BuChE inhibition, Ellman's colorimetric method
Format: biochemical
experimental.parameters: read-out: % BuChE inhibition mean ± SEM
Each item that follows carries a reported inhibition at 125 µM.
value.type: inhibition at 125 µM (%)

compound: O=C1c2ccccc2C(=O)N1c1ccc(C(F)(F)F)cc1 [compound 1]
observed.result: 54.3
//
compound: COc1cc2c(cc1OC)C(=O)C(CC1CCN(Cc3ccccc3)CC1)C2 (stereo not shown) [donepezil, reference compound]
observed.result: 78.4
//
compound: O=C1c2ccccc2C(=O)N1c1ccc(Br)cc1 [compound 2, 2-(4-bromophenyl)isoindoline-1,3-dione]
observed.result: 56.3
//
compound: Cc1ccc(N2C(=O)c3ccccc3C2=O)c(C)c1 [compound 3]
observed.result: 69.4
